Tested on: R2
assay.comment: Cytotoxicity against Chinese hamster R2 cells transfected with empty PCDNA3 assessed as cell growth inhibition after 96 hrs by CellTiter-Blue assay
Assay type: cell-based, Cricetulus griseus
pIC50: −log10 of the molar value.
measure.name: pIC50

// known answers, use as guide
{"smiles.representation": "Nc1nc(N)c2c(CCCc3cc(C(=O)N[C@@H](CCC(=O)O)C(=O)O)cs3)coc2n1", "result": "< 6.00"}
{"smiles.representation": "Nc1nc2[nH]c(CCCc3csc(C(=O)N[C@@H](CCC(=O)O)C(=O)O)c3)cc2c(=O)[nH]1", "result": "< 6.00"}

Briefly, pIC50 measured for `Nc1nc2[nH]c(CCCc3cc(C(=O)N[C@@H](CCC(=O)O)C(=O)O)cs3)cc2c(=O)[nH]1` : < 6.00
